Target: T1, rat DLL4 extracellular domain (rat, UniProt D3ZHH1 28-530)
T1 construct: extracellular domain; also called ratDLL4 ECD
T1 sequence (D3ZHH1 28-530): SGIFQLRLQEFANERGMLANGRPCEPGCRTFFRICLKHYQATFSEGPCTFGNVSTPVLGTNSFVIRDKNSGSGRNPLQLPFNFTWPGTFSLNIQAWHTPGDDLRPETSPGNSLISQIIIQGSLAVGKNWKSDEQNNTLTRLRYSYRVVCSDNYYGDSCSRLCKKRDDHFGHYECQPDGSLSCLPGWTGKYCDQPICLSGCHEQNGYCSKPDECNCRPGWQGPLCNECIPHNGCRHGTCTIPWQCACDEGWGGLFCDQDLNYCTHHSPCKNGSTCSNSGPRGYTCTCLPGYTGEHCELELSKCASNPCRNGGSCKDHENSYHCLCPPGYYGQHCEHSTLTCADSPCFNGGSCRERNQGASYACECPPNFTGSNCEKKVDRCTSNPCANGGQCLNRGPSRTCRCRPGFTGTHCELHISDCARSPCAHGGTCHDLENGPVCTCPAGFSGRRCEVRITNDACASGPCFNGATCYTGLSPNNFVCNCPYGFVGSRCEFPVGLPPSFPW
Assay: SPR (Biacore)
For each record, write down the corresponding kon.
Numbers only, in M⁻¹ s⁻¹.

Each binder below has a recorded value; state its kon.
1. h1A11.A8 (antibody, V domains shown, also called h1A11.A8 VH / h1A11VL.1) VH: EVQLVESGGGLVQPGGSLRLSCAASGFTFGNFPMSWVRQAPGKGLEWVASISSSDSWATIGDSVKGRFTISRDNAKNSLYLQMNSLRAEDTAVYYCSRGYYNSPFAYWGQGTLVTVSS VL: DIQMTQSPSSLSASVGDRVTITCRASEDIYSNLAWYQQKPGKAPKLLIYDTNNLADGVPSRFSGSGSGTDFTLTISSLQPEDFATYYCQQYNNYPPTFGQGTKLEIK
2. h1A11.E12 (antibody, V domains shown, also called h1A11.E12 VH / h1A11.E12 VL) VH: EVQLVESGGGLVQPGGSLRLSCAASGFTFRYFPMAWVRQAPGKGLEWVATISGSDEWPNYRDSVKGRFTISRDNAKNSLYLQMNSLRAEDTAVYYCARGYYNSPFAFWGQGTLVTVSS VL: DIQMTQSPSSLSASVGDRVTITCRASQEIYRNLAWYQQKPGKSPKLLIFDTSVLADGVPSRFSGSGSGTDSTLTISSLQPEDFATYYCQQYTYYPPTFGQGTKLEIK
3. h1A11.C6 (antibody, V domains shown, also called h1A11.C6 VH / h1A11VL.1) VH: EVQLVESGGGLVQPGGSLRLSCAASGFTFRNFPMAWVRQAPGKGLEWVATISSSDGWPTYRDSVKGRFTISRDNAKSSLYLQMNSLRAEDTAVYYCSRGYYNSPFAYWGQGTLVTVSS VL: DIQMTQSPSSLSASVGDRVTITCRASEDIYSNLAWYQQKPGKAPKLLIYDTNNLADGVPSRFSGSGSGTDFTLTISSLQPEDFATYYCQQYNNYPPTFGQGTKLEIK

a:
1: 139000; 2: 108000; 3: 169000
